Numbers sourced from the Human Domainome abundance scans (Beltran et al. 2025).

B1: E3 ubiquitin-protein ligase NEDD4-like, residues 539 to 589; numbered along this chain, Q96PU5 (parent)
chain: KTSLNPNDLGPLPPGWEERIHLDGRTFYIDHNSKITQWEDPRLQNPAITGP

variants of: B1; assay: abundance fitness (aPCA) (normalised: wild type 0, dead -1); higher = more abundant; growth selection in yeast, the domain comes from the species named; details: Homo sapiens
Kindly supply the reported abundance fitness values for the records listed here.
Please give only the number in your answer, with no unit.

Entry under test: `T2R` . Its abundance fitness was -0.365

Entry under test: `Q37T` . Its abundance fitness was 0.21

Entry under test: `G24P` . Its abundance fitness was -1.14

Entry under test: `E39C` . Its abundance fitness was -0.194

Entry under test: `G24N` . Its abundance fitness was -0.639

Entry under test: `I35C` . Its abundance fitness was 0.002

Entry under test: `Q37C` . Its abundance fitness was -0.207

Entry under test: `L12P` . Its abundance fitness was -0.62

Entry under test: `R25N` . Its abundance fitness was -0.164

Entry under test: `D30T` . Its abundance fitness was -0.716

Entry under test: `R25M` . Its abundance fitness was -0.48

Entry under test: `E18R` . Its abundance fitness was -0.159

Entry under test: `G24R` . Its abundance fitness was -0.56

Entry under test: `A47G` . Its abundance fitness was 0.01

Entry under test: `Q37Y` . Its abundance fitness was -0.33

Entry under test: `N32F` . Its abundance fitness was -0.39

Entry under test: `T36A` . Its abundance fitness was -0.341

Entry under test: `G15F` . Its abundance fitness was -0.491

Entry under test: `D30A` . Its abundance fitness was -0.539

Entry under test: `T49H` . Its abundance fitness was -0.089

Entry under test: `P46N` . Its abundance fitness was -0.263

Entry under test: `I20M` . Its abundance fitness was -0.131

Entry under test: `I35R` . Its abundance fitness was 0.048

Entry under test: `S33I` . Its abundance fitness was -0.42

Entry under test: `D23G` . Its abundance fitness was -0.388

Entry under test: `W38M` . Its abundance fitness was -0.127

Entry under test: `P6G` . Its abundance fitness was 0.027

Entry under test: `G10Q` . Its abundance fitness was -0.276

Entry under test: `P46A` . Its abundance fitness was -0.06

Entry under test: `H31W` . Its abundance fitness was -0.428

Entry under test: `W16L` . Its abundance fitness was -0.509

Entry under test: `T26S` . Its abundance fitness was -0.113

Entry under test: `R19K` . Its abundance fitness was -0.198

Entry under test: `W16S` . Its abundance fitness was -0.471

Entry under test: `G24K` . Its abundance fitness was -0.53

Entry under test: `G50D` . Its abundance fitness was 0.029

Entry under test: `G10W` . Its abundance fitness was -0.433

Entry under test: `N5E` . Its abundance fitness was 0.019

Entry under test: `T26R` . Its abundance fitness was -0.011
